meta.source: PubChem BioAssay (NCI)

Tested on: LOX IMVI melanoma
test-name: NCI tumour cell line growth inhibition, 48 h; in the data active means GI50 below about 0.43 µM; inactive means the rest
Give one outcome, nothing more. List: YES for active, NO for inactive

1) Cn1cc(C2=C(c3cn(C)c4c(N)cccc34)C(=O)NC2=O)c2ccccc21 ... NO
2) COc1cc2c(/C=C3/C(=O)Nc4cccc(Cl)c43)c(Cl)n(Cc3ccccc3)c2cc1C ... NO
3) COc1cccc(NCc2nnc(Nc3ccc(Cl)cc3)c3ccccc23)c1 ... NO
4) CCCCn1c(-c2ccc(C(=O)O/N=C(\N)c3ccc(OC)cc3)cc2)nc(-c2ccccc2)c1-c1ccccc1 ... YES
5) C[C@]12CC[C@@H]3c4ccc(O)cc4CC[C@H]3[C@@H]1CC[C@@H]2NS(=O)(=O)c1ccc(C(F)(F)F)cc1 ... NO

Which outcome was entered for the molecule COc1ccc(S(=O)(=O)N(Cc2ccc3c(n2)C=CC(C)(C)O3)C2CCC2)cc1OC in this test?
YES

Which outcome was entered for the molecule COc1ccc(-c2nc(-c3nc4ccc(C)cc4[nH]3)c3ccccn23)cc1 in this test?
NO

Which outcome was entered for the molecule C[C@]12CC[C@@H]3c4ccc(O)cc4C[C@@H](CCCCCCCCCS(=O)CCCC(F)(F)C(F)(F)F)[C@H]3[C@@H]1CC[C@@H]2O (some centres undefined) in this test?
NO

Which outcome was entered for the molecule CC(C)CSc1nc(Nc2ccccc2)c(C#N)c(-c2ccc(F)cc2)n1 in this test?
NO

---

Test system: NCI-H23 lung
test-name: NCI tumour cell line growth inhibition, 48 h
endpoint-name: TGI (µM)
Just the number please, in µM, no unit attached.

Worked examples follow.
1. NC(N)=NC(N)=Nc1cc2ccccc2c2ccccc12 ... 29.7
2. CC(C)=[CH][Sb]([Br])([CH]=C(C)C)([CH]=C(C)C)[CH]=C(C)C ... 46.7

Okay, now this molecule:
Any idea what TGI was measured for COc1ccc(OC(=O)O[C@H]2[C@H](O[C@H]3[C@@H](O)COC(O[C@H]4C[C@H]5[C@@H]6CC=C7C[C@@H](O)CC[C@]7(C)[C@H]6CC[C@]5(C)[C@H]4[C@H](C)C(=O)CCC(C)C)[C@@H]3OC(C)=O)OC[C@@H](O)[C@@H]2O)cc1 (some centres not stated) ?
19.1

---

Tested on: KM12 colon
test-name: NCI tumour cell line growth inhibition, 48 h
endpoint-name: TGI

Worked examples follow.
1) Cc1ccccc1Nc1cn(COCc2ccccc2)c(=O)[nH]c1=O ... > 100 µM
2) CSc1nc(Cl)c2c(n1)Sc1nc3cc4c(cc3n1C2O)OCO4 (centres undefined) ... > 100 µM
3) O=C(CC(=O)N(C(=O)c1ccccc1)c1ccc(Cl)cc1)N/N=C\c1cc(N=Nc2ccccc2Cl)ccc1O ... > 100 µM
4) CCOCNC(=O)N(COCC)COCC ... > 100 µM
5) COc1cc([C@@H]2c3cc4c(cc3C(O[C@@H]3O[C@@H]5CO[C@@H](c6cccs6)OC5[C@H](O)[C@H]3O)C3COC(=O)[C@@H]32)OCO4)cc(OC)c1O (some centres undefined) ... 0.796 µM

Any idea what TGI was measured for O=C(CC(=O)N1N=C(c2ccccc2)C(N=Nc2ccc(Cl)cc2)C1=O)Nc1ccccc1Cl (centres undefined) ?
> 100 µM

Any idea what TGI was measured for COC1(OC)C2(Cl)CCC1(Cl)C(OC(C)=O)C2 (centres undefined) ?
> 100 µM

Any idea what TGI was measured for CC(C(=O)N1c2ccccc2Sc2ccccc21)N1c2ccccc2Sc2ccccc21 (centres undefined) ?
> 100 µM

Any idea what TGI was measured for CCOC(=O)c1c(SC(=O)/C=C/c2ccccc2)n(-c2ccccc2)c(=S)n(-c2ccccc2)c1=O ?
> 100 µM

Any idea what TGI was measured for COC12C=CC(CC1)C(C)(C)C2=O (centres undefined) ?
> 100 µM

Any idea what TGI was measured for C[C@]12CC[C@@H]3c4ccc(O)cc4CC[C@H]3[C@@H]1CC[C@@H]2NS(=O)(=O)c1ccc(C(F)(F)F)cc1 ?
3.57 µM

Any idea what TGI was measured for O=C(/C=C/c1ccccc1Cl)c1ccccc1Cl ?
29.3 µM

Any idea what TGI was measured for COc1cc(Cn2c(-c3ccccc3)cc3c2-c2oncc2CC3)cc(OC)c1OC ?
22.8 µM

Any idea what TGI was measured for CCSc1nc(N2CCOCC2)c2cn[nH]c2n1 ?
> 100 µM

Any idea what TGI was measured for C=C1CC[C@@]2(OC1)OC1C[C@H]3[C@@H]4CC=C5C[C@@H](O)CC(OC6OCC(OC(=O)[C@@H](O)[C@@H](C)CC)C(OC(C)=O)C6OC6OC(C)C(O)C(O)C6O)[C@]5(C)[C@H]4CC[C@]3(C)C1[C@@H]2C (some centres undefined) ?
5.13 µM

Any idea what TGI was measured for Nc1c(-c2ccc(Br)cc2)[n+]([O-])c2ccccc2[n+]1[O-] ?
> 100 µM

Any idea what TGI was measured for COc1ccc(-c2nc(-c3nc4ccc(C)cc4[nH]3)c3ccccn23)cc1 ?
9.07 µM

Any idea what TGI was measured for C=C1C(=O)O[C@H]2[C@H]1CC/C(COC(=O)/C=C\C(=O)NCc1ccc(Cn3c(=O)sn(-c4ccc(C#N)cc4)c3=O)cc1)=C\CC[C@@]1(C)O[C@@H]21 ?
1.84 µM

Any idea what TGI was measured for NC(N)=NC(N)=Nc1cc2ccccc2c2ccccc12 ?
27.2 µM

Any idea what TGI was measured for O=C(NC1CCCCCC1)C1C(=O)N(C2CCCCCC2)C(=O)/C1=N\O (centres undefined) ?
> 100 µM

Any idea what TGI was measured for CCCCCCCCCCCCCCCCOP(=O)(O)Oc1ccc(/C=C\c2ccc(OP(=O)(O)OCCCCCCCCCCCCCCCC)cc2)cc1 ?
> 100 µM

Any idea what TGI was measured for CCc1cccc(C)c1NC(C)=O ?
> 100 µM

Any idea what TGI was measured for c1ccc2c(c1)nc1n2CNCC1 ?
> 100 µM
